System: red blood cells
Assay: Hemolysis assay
Format: cell-based, Sprague-Dawley mouse
Where a SMILES comes first, the peptide text is derived from it. [ ]: non-standard residue; d: D form. Gly(N(CH2)2(3-indolyl)) = O=C(O)CNCCc1c[nH]c2ccccc12; Nspe = C[C@H](NCC(=O)O)c1ccccc1; Nlys = NCCCCNCC(=O)O
Hi there, I'd appreciate the recorded Hmax (100 μM) for every entry that follows.
One number for each entry, in %.

Record excerpt, results attached:
COMPOUND	UNIT DESCRIPTOR	REPORTED
C[C@@H](c1ccccc1)N(CC(=O)N(CCc1c[nH]c2ccccc12)CC(N)=O)C(=O)CN(CCCCN)C(=O)CN(C(=O)CN(C(=O)CN(CCCCN)C(=O)CN(C(=O)CN(C(=O)CN(CCCCN)C(=O)CN(C(=O)CN(C(=O)CNCCCCN)[C@@H](C)c1ccccc1)[C@@H](C)c1ccccc1)[C@@H](C)c1ccccc1)[C@@H](C)c1ccccc1)[C@@H](C)c1ccccc1)[C@@H](C)c1ccccc1 [Peptoid 7] (H-[Nlys][Nspe][Nspe][Nlys][Nspe][Nspe][Nlys][Nspe][Nspe][Nlys][Nspe][Gly(N(CH2)2(3-indolyl))]-NH2)	%	94.1
C[C@@H](c1ccccc1)N(CC(N)=O)C(=O)CN(C(=O)CN(CCCCN)C(=O)CN(C(=O)CN(C(=O)CN(CCCCN)C(=O)CN(CCc1c[nH]c2ccccc12)C(=O)CN(CCCCN)C(=O)CN(CCCCN)C(=O)CN(C(=O)CN(C(=O)CNCCCCN)[C@@H](C)c1ccccc1)[C@@H](C)c1ccccc1)[C@@H](C)c1ccccc1)[C@@H](C)c1ccccc1)[C@@H](C)c1ccccc1	%	0.7

Now look at this one.
If you can, please state the reported Hmax (100 μM) value of C[C@@H](c1ccccc1)N(CC(N)=O)C(=O)CN(C(=O)CN(CCCCN)C(=O)CN(C(=O)CN(CCc1c[nH]c2ccccc12)C(=O)CN(CCCCN)C(=O)CN(CCc1c[nH]c2ccccc12)C(=O)CN(C(=O)CN(CCCCN)C(=O)CN(C(=O)CN(C(=O)CNCCCCN)[C@@H](C)c1ccccc1)[C@@H](C)c1ccccc1)[C@@H](C)c1ccccc1)[C@@H](C)c1ccccc1)[C@@H](C)c1ccccc1 [Peptoid 15-1] .
33.4
